Origin of values: ChEMBL document CHEMBL4152339

# assay.method.text: Selectivity index, ratio of IC50 for human HaCaT cells to MIC for Proteus vulgaris NCTC 4635
# Format: toxicity
# setup.conditions: read-out: Selectivity Index
Listed here are compounds together with their documented selectivity ratio.
Please reply with the number alone, leaving off any unit.

item.smiles: O=[N+]([O-])c1ccc(-n2nnnc2Nn2cnnc2)cc1
quantity: selectivity ratio
value.observed: 0.55
//
item.smiles: Fc1ccc(-n2nnnc2NCc2ccco2)cc1Cl
quantity: selectivity ratio
value.observed: 84
//
item.smiles: Cc1ccc(-n2nnnc2NCc2ccco2)cc1Cl
quantity: selectivity ratio
value.observed: 11.4
//
item.smiles: FC(F)(F)c1ccc(-n2nnnc2Nc2nccs2)cc1
quantity: selectivity ratio
value.observed: 0.19
//
item.smiles: Fc1ccc(-n2nnnc2Nc2nccs2)cc1Cl
quantity: selectivity ratio
value.observed: 0.07

Task item: Could you share which selectivity ratio value was measured for `Brc1ccc(-n2nnnc2Nn2cnnc2)cc1` ?
Reply: 5

Task item: Now consider `Fc1ccc(-n2nnnc2Nn2cnnc2)cc1` .
Reply: 1.47

Task item: Now consider `Fc1ccc(-n2nnnc2Nn2cnnc2)cc1Cl` .
Reply: 1.08
